Exercise: state measured MIC for each of the compounds provided.
Tested on: Escherichia coli
run_description: In vitro antibacterial activity against Escherichia coli, expressed as minimum inhibitory concentration (MIC)
Assay type: functional
Expressed in µg/mL, but write only the number.

Qu. Would you kindly share the measured MIC for C[C@@H]1NC(=O)C(N)CNC(=O)[C@H](C2CCN=C(N)N2)NC(=O)/C(=C/Nc2ccc(C3CCCCC3)cc2)NC(=O)[C@H](CNC(=O)C[C@@H](N)CCCN)NC1=O.NCCC[C@H](N)CC(=O)NC[C@@H]1NC(=O)[C@H](CO)NC(=O)C(N)CNC(=O)[C@H](C2CCN=C(N)N2)NC(=O)/C(=C/Nc2ccc(C3CCCCC3)cc2)NC1=O (some centres not stated) ?
Ans. 6.25

Qu. Okay, and C[C@@H]1NC(=O)C(N)CNC(=O)[C@H](C2CCN=C(N)N2)NC(=O)/C(=C/Nc2ccc(Cl)c(Cl)c2)NC(=O)[C@H](CNC(=O)C[C@@H](N)CCCN)NC1=O.NCCC[C@H](N)CC(=O)NC[C@@H]1NC(=O)[C@H](CO)NC(=O)C(N)CNC(=O)[C@H](C2CCN=C(N)N2)NC(=O)/C(=C/Nc2ccc(Cl)c(Cl)c2)NC1=O (some centres not stated) ?
Ans. 6.25
